target: Cytochrome P450 3A4 (Homo sapiens) (UniProt P08684); assay: Cytochrome panel assay with activity outcomes; conditions: recombinant CYP, pro-luciferin dealkylation, luminescence, p450-cyp3a4; series mostly up to 57.1 µM
Sequence (P08684 whole entry, looked up): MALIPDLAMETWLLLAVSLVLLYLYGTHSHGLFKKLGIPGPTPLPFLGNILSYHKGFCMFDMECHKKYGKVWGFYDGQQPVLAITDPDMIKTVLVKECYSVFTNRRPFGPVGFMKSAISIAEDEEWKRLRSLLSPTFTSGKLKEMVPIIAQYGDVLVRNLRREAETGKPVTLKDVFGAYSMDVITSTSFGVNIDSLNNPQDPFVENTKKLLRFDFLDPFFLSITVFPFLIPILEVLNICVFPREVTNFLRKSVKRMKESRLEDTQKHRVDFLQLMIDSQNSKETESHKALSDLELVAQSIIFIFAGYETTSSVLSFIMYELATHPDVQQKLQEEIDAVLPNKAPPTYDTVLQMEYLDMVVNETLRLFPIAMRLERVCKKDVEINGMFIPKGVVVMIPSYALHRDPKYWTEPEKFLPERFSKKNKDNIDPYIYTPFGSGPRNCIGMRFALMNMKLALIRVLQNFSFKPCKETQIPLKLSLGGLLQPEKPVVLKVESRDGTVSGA
About 5,100 (32%) of roughly 16,000 compounds were called active. About 25% were inconclusive and are not listed. Calls come from the whole dose curve; as a rule, active = well fitted curve in the direction sought with a large enough effect; inconclusive = small, poorly fitted or top-dose-only effect, or effect the other way; inactive = no such curve, though single readings can be large or run the other way. This is one part of the list.
Labels: Yes = active, No = inactive

- O=C(N/N=C/C1C(c2ccccc2)C1(Cl)Cl)c1cccc(Br)c1 (stereo unspecified): Yes
- CCn1nc(C)c(NC(=O)/C=C/c2cnn(C)c2C)c1C: No
- CCN1CCCC1CNC(=O)CSCc1nc(-c2ccccc2C)oc1C (stereo unspecified): Yes
- O=C(Nc1cccc(F)c1)N1CC[C@@]2(CCCN(C(=O)c3cc(C(F)(F)F)cc(C(F)(F)F)c3)C2)C1: Yes
- O=C1CCCN1c1ccc(S(=O)(=O)Oc2cccc(Cl)c2)cc1[N+](=O)[O-]: Yes
- CCc1noc(C)c1C(=O)Nc1nc(-c2cc(C)ccc2C)c(C)s1: Yes
- O=C(Nc1cccc(F)c1)N1CCCC2(CCN(C(=O)c3cc(C(F)(F)F)cc(C(F)(F)F)c3)CC2)C1: Yes
- O=[N+]([O-])c1ccc(N2CCCCC2)c(Cl)c1N1CCCCC1: No
- COc1ccccc1/C=C/C(=O)c1c2c(c(C)[nH]c1=O)CCCC2: Yes
- NC(=O)c1ccc(NC(=O)C2CCCO2)cc1 (stereo unspecified): No
- COc1cccc(Cn2c(NCc3cccnc3)nc3c2c(=O)n(C)c(=O)n3C)c1: Yes
- CCOc1ccccc1C1C(C(N)=O)=C(C)Nc2nc(-c3ccc(OC)cc3)nn21 (stereo unspecified): Yes
- O=C(Cc1ccccc1I)Nc1ccccc1: No
- CCOc1ccccc1NC(=O)C(=O)NCC1CCCN1CC (stereo unspecified): No
- CC[C@]1(O)C[C@@H]2CN(CCc3c([nH]c4ccccc34)[C@](C(=O)OC)(c3cc4c(cc3OC)N(C)[C@H]3[C@](O)(C(=O)OC)[C@@H](C(=O)OC)[C@@]5(CC)C=CCN6CC[C@@]43[C@@H]65)C2)C1: Yes
- O=C1Nc2cc(C(=O)N3CCOCC3)ccc2SC1N1CCOCC1 (stereo unspecified): No
- Cc1ccc(SCCNC(=S)Nc2ccc(C)c(C)c2)cc1: Yes
- Cn1c(CN2CCCCC2)nc2cc(NC(=O)c3ccc(Cl)cc3)ccc21: Yes
- COc1ccccc1CNc1ccnc(-c2ccc(C(=O)N(C)C)cc2)n1: Yes
- CN(C)c1ccc(-c2nccc(NCc3ccccc3)n2)cc1: Yes
- COc1ccc(CCn2c(C)cc(C(=O)CSc3nc(N)cc(=O)[nH]3)c2C)cc1: Yes
- O=C(Nc1ccccc1)N1CC2(CCN(C(=O)c3cc(C(F)(F)F)cc(C(F)(F)F)c3)CC2)C1: No
- CCOc1ccc(OCC)c(NC(=O)C2CCCN(S(=O)(=O)c3cccs3)C2)c1 (stereo unspecified): Yes
- CC(=O)Nc1nnc(SCc2ccc(F)cc2)s1: No
- CC[C@]1(O)C[C@H]2CN(CCc3c([nH]c4ccccc34)[C@](C(=O)OC)(c3cc4c(cc3OC)N(C=O)[C@H]3[C@@](O)(C(=O)OC)[C@H](OC(C)=O)[C@@]5(CC)C=CCN6CC[C@]43[C@H]65)C2)C1: Yes
- O=C(Nc1nnc(SCc2ccc(Cl)cc2Cl)s1)C1COc2ccccc2O1 (stereo unspecified): Yes
- Cc1[nH]c(=O)c(C(=O)/C=C/c2ccccc2F)c2c1CCCC2: Yes
- CCCS(=O)(=O)N1CCCC(C(=O)NCCCOCC)C1 (stereo unspecified): No
- N#Cc1cccc(NC(=O)N2CCCC3(CCN(C(=O)c4cc(C(F)(F)F)cc(C(F)(F)F)c4)CC3)C2)c1: Yes
- Cc1ccccc1CSc1nccn1-c1ccccc1: Yes
- C1CCC(N=C(NC23CC4CC(CC(C4)C2)C3)N2CCOCC2)CC1: No
- COc1ccccc1-c1ccc2ncnc(N(C)C)c2c1: Yes
- CCN(C(=O)c1cnc(N2CCN(c3ncccn3)CC2)c2ccccc12)c1cccc(Cl)c1: Yes
- CCCc1ccc(C2C3=C(CC(C)(C)CC3=O)NC3=C2C(=O)c2ccccc23)cc1 (stereo unspecified): Yes
- CC1CCC(NC(=O)CC(C)(C)Cc2nc3ccccc3c(=O)[nH]2)CC1 (stereo unspecified): No
- CC(C)(CO)Cc1cc(C(C)(C)C)c(O)c(C(C)(C)C)c1: Yes

====

molecular target: Cytochrome P450 3A4 (Homo sapiens) (UniProt P08684); test: Cytochrome panel assay with activity outcomes; conditions: recombinant CYP, pro-luciferin dealkylation, luminescence, p450-cyp3a4; series mostly up to 57.1 µM; for activity, negative = inhibition: % is set by controls: 0 for no effect and ±100 for the full control effect
Among all 16,000 compounds or so, about 5,100 (32%) were called active. Roughly 25% stayed inconclusive and do not appear here. The list shows a part of the results.
# Lookup of reported activity, negative = inhibition keyed by entry
QUANTITY_MEASURED: activity, negative = inhibition

• COc1ccc(OC)c(CNC(=O)CCNC(=O)Cn2ccc3ccccc3c2=O)c1 = 5.01% [at 2.29 µM] (inactive)
• COC(=O)C/C=C\[C@@H](C)[C@@H]1C=C[C@H](OC(C)=O)[C@H](COC(C)=O)O1 = -23.4% [at 11.4 µM] (inactive)
• CO[C@@H]1COC(=O)C/C=C\[C@H](C)[C@H](OC)COC(=O)[C@H]2CCCN2C(=O)C/C=C\[C@H]1C = -14.8% [at 11.4 µM] (inactive)
• CCCCSc1ccc2nc(-c3ccc(C#N)cc3)cn2c1 = 20.1% [at 2.29 µM] (inactive)
• COc1ccc(-c2c(C)oc3c(CN4CCN(CCO)CC4)c(O)ccc3c2=O)cc1OC = -0.572% [at 11.4 µM] (inactive)
• NS(=O)(=O)c1cc2c(cc1Cl)N[C@H](Cc1ccccc1)NS2(=O)=O = -18.4% [at 11.4 µM] (inactive)
• O=C(O)CC1(C(=O)O)CCCCC1 = -15.2% [at 11.4 µM] (inactive)
• CCOC(=O)N/N=C1/C[C@@H](O)[C@@H](O)[C@@H]2[C@@H]3C(=O)N(C4CCCCC4)C(=O)[C@H]3CC[C@@H]12 = -20.8% [at 11.4 µM] (inactive)
• Cc1ccc(-n2cnc(=O)c3cccnc32)cc1 = -3.53% [at 2.29 µM] (inactive)
• Cc1ccc(C(=O)NC(=S)NCC2CCCO2)cc1 (centres undefined) = -7.78% [at 2.29 µM] (inactive)
• Nc1nc(-c2ccccc2)c(-c2ccccc2)c(-c2nc(N)nc(-c3ccccc3)c2-c2ccccc2)n1 = 4.04% [at 11.4 µM] (inactive)
• O=C1c2ccccc2C(=O)c2c(NC3CCCCC3)ccc(Nc3ccc(S(=O)(=O)O)cc3)c21 = -21.4% [at 11.4 µM] (inactive)
• Nc1ncnc2c1ncn2CCCCC(=O)O = -8.48% [at 11.4 µM] (inactive)
• COc1ccc(/C=N/NC(=O)c2cccc([N+](=O)[O-])c2)cc1OS(=O)(=O)c1ccc(C)cc1 = -20.3% [at 2.29 µM] (inactive)
• CO[C@H]1COC(=O)[C@H](C)NC(=O)C/C=C\[C@@H](C)[C@H](OC)COC(=O)[C@@H](OCc2ccccc2)/C=C\[C@@H]1C = -29.2% [at 11.4 µM] (inactive)
• O=C(Nc1ccnc(-c2cccnc2)n1)c1ccccc1Cl = 3.82% [at 2.29 µM] (inactive)
• Cc1ccccc1C(=O)c1c[nH]c(C(=O)NCC2CCCO2)c1 (centres undefined) = 2.67% [at 11.4 µM] (inactive)
• CC(=O)Nc1ccc(S(=O)(=O)c2ccc(N)cc2)cc1 = -19.3% [at 11.4 µM] (inactive)
• Cc1ccc(SCc2[nH]nc3c2C(C(C)C)C(C#N)=C(N)O3)cc1 (centres undefined) = -16.4% [at 2.29 µM] (inactive)

====

biological target: Cytochrome P450 3A4 (Homo sapiens) (UniProt P08684); experiment: Cytochrome panel assay with activity outcomes; settings: recombinant CYP, pro-luciferin dealkylation, luminescence, p450-cyp3a4; series mostly up to 57.1 µM
Hit rate of the full screen: of about 16,000 compounds, about 5,100 (32%) were called active. About 25% were inconclusive and are not listed. The call rests on the fitted dose curve; in most records, active means well fitted curve in the direction sought with a large enough effect; inconclusive means small, poorly fitted or top-dose-only effect, or effect the other way; inactive means no such curve, though single readings can be large or run the other way. The list shows a part of the results.
Labels: true (1) (active), false (0) (inactive)

* COc1ccccc1CNc1ncnc2ccc(-c3cccnc3)cc12 | true (1)
* O=C(Nc1ccccc1)N1CCCC2(CCN(C(=O)c3csnn3)CC2)C1 | true (1)
* CN1CCN(c2ncnc3ccc(-c4cccnc4)cc23)CC1 | true (1)
* Clc1ccccc1-c1ccc2ncnc(NCCN3CCOCC3)c2c1 | true (1)
* CCOc1ccc(-n2c(N)c(C(=O)NCc3cccnc3)sc2=S)cc1 | true (1)
* CCOc1ccc(-n2c(C)nc3cc(C(=O)NCc4ccco4)ccc32)cc1 | false (0)
* Cc1cccc(Nc2ccccc2C(=O)OCC(=O)NCc2ccco2)c1C | true (1)
* CC(=O)N1CCC2(CC1)CN(c1ccccc1)C2 | false (0)
* CCOc1ccc(N2C(=O)c3cccnc3C2=O)cc1 | false (0)
* Cc1ccc2c(c1)[C@@H]1CN(C)CC[C@@H]1N2S(=O)(=O)c1ccc(F)cc1 | true (1)
* N[C@H](C(=O)O)[C@@H]1C[C@@H]1C(=O)O | false (0)
* Cc1c(Nc2ncccc2C(=O)O)cccc1C(F)(F)F | false (0)
* O=C(Nc1ccccc1)N1CCC2(CC1)CCN(C(=O)c1csnn1)CC2 | false (0)
* CC(Sc1nc(-c2ccccc2)cc(C(F)(F)F)n1)C(=O)N1CCCCC1 (centres undefined) | true (1)
